Read-out record for Human cytomegalovirus DNA polymerase (Human cytomegalovirus, UniProt P08546): IC50
Measured Endpoint: IC50 (nM)

[[record]]
compound = "Cn1nc(C(=O)NCc2ccc(Cl)cc2)c2c1CN(C[C@H]1CC(F)C(=O)N1)C2 (stereo partly shown) [Compound 78]"
quantitative_readout = 252

[[record]]
compound = "CC(C1CC(F)C(=O)N1)N1Cc2c(C(=O)NCc3ccc(Cl)cc3)nn(C)c2C1 (stereo not shown) [Compound 75]"
quantitative_readout = 70.9

[[record]]
compound = "O=C1CC[C@H](CN2Cc3c(C(=O)NCc4ccc(Cl)cc4)nn(-c4ncccn4)c3C2)N1 [Compound 28]"
quantitative_readout = 15.2

[[record]]
compound = "CC(C)(O)Cn1nc(C(=O)NCc2ccc(Cl)cc2)c2c1CN(C[C@H]1CCC(=O)N1)C2 [Compound 58]"
quantitative_readout = 120

[[record]]
compound = "Cc1nnc2n1C(CN1Cc3c(C(=O)NCc4ccc(Cl)cc4)nn(C)c3C1)CC2 (stereo not shown) [Compound 97]"
quantitative_readout = 174

[[record]]
compound = "CCC1c2c(c(C(=O)NCc3ccc(Cl)cc3)nn2C)CN1C[C@@H]1CCC(=O)N1 (single isomer, unassigned) [Compound 103]"
quantitative_readout = 17.4

[[record]]
compound = "O=C(NCc1ccc(Cl)cc1)c1nn(CCNC(=O)C2CCC2)c2c1CN(Cc1c(F)cncc1F)C2 [Compound 64]"
quantitative_readout = 64


====

system: HSV-1 Strain F; assay: Viral qPCR assay, HSV-1 in Vero cells; assay type: cell-based, Herpes Simplex Virus type 1; conditions: Human alphaherpesvirus 1, Vero, 72 h, read-out: HSV1 VERO Cell (EC50)
Measured Endpoint: EC50

[[record]]
molecule = "O=C1CC[C@H](CN2Cc3c(C(=O)NCc4ccc(Cl)cc4)nn(CC4CCCO4)c3C2)N1 (stereo partly shown)"
measured_endpoint = "EC50"
result = "5.32 µM"

[[record]]
molecule = "Cn1nc(C(=O)NCc2ccc(Cl)cc2)c2c1C1(CCC1)N(C[C@@H]1CCC(=O)N1)C2"
measured_endpoint = "EC50"
result = "13.3 µM"

[[record]]
molecule = "CN1CC(n2nc(C(=O)NCc3ccc(Cl)cc3)c3c2CC(C[C@H]2CCC(=O)N2)C3)C1 (stereo partly shown)"
measured_endpoint = "EC50"
result = "26.1 µM"

[[record]]
molecule = "[2H]C([2H])([2H])n1nc(C(=O)NCc2ccc(Cl)cc2)c2c1CN(C[C@H]1CCC(=O)N1)C2"
measured_endpoint = "EC50"
result = "1.37 µM"


====

pIC50: −log10 of the molar value.
Read-out record for Human cytomegalovirus DNA polymerase (Human cytomegalovirus, UniProt P08546): pIC50
Measured Endpoint: pIC50

[[record]]
compound = "Cn1nc(C(=O)NCc2ccc(Cl)cc2)c2c1CN(C[C@@H]1CC(F)(F)C(=O)N1)C2 [Compound 82]"
quantitative_readout = 7.22

[[record]]
compound = "O=C1CC[C@H](CN2Cc3c(C(=O)NCc4ccc(Cl)cc4)nn(CCN4CC(F)C4)c3C2)N1 [Compound 4]"
quantitative_readout = 7.28

[[record]]
compound = "Cn1nc(C(=O)NCc2ccc(Cl)cc2)c2c1CN(C[C@@H]1CC(F)C(=O)N1)C2 (stereo partly drawn) [Compound 80]"
quantitative_readout = 6.77

[[record]]
compound = "CC([C@@H]1CCC(=O)N1)N1Cc2c(C(=O)NCc3ccc(Cl)cc3)nn(-c3nccs3)c2C1 (single isomer, unassigned) [Compound 6]"
quantitative_readout = 6.02

[[record]]
compound = "CC(C)(C)c1csc(-n2nc(C(=O)NCc3ccc(Cl)cc3)c3c2CN(C[C@H]2CCC(=O)N2)C3)n1 [Compound 21]"
quantitative_readout = 6.80

[[record]]
compound = "CN1CC(n2nc(C(=O)NCc3ccc(Cl)cc3)c3c2CC(C[C@@H]2CCC(=O)N2)C3)C1 (stereo partly drawn) [Compound 138]"
quantitative_readout = 6.77

[[record]]
compound = "Cn1nc(C(=O)NCc2ccc(Cl)cc2)c2c1CC(CC1CCC(=O)N1)C2 (single isomer, unassigned) [Compound 128]"
quantitative_readout = 5.97

[[record]]
compound = "Cn1nc(C(=O)NCc2ccc(Cl)cc2F)c2c1CN(C[C@H]1CCC(=O)N1)C2 [Compound 61]"
quantitative_readout = 6.46

[[record]]
compound = "O=C1CC[C@H](CN2Cc3c(C(=O)NCc4ccc(Cl)cc4)nn(CC4(CF)COC4)c3C2)N1 [Compound 41]"
quantitative_readout = 6.96

[[record]]
compound = "CC1c2c(c(C(=O)NCc3ccc(Cl)cc3)nn2C)CN1C[C@H]1CCC(=O)N1 (single isomer, unassigned) [Compound 107]"
quantitative_readout = 5.34

[[record]]
compound = "O=C1CC[C@@H](CN2Cc3c(C(=O)NCc4ccc(Cl)cc4)nn(-c4ncccn4)c3C2)N1 [Compound 31]"
quantitative_readout = 7.57

[[record]]
compound = "C[C@@H]1c2c(C(=O)NCc3ccc(Cl)cc3)nn(C)c2CN1C[C@H]1CCC(=O)N1 [Compound 125]"
quantitative_readout = 5.86

[[record]]
compound = "CC(C)[C@H]1c2c(c(C(=O)NCc3ccc(Cl)cc3)nn2C)CN1C(C)C1CCC(=O)N1 (single isomer, unassigned) [Compound 118]"
quantitative_readout = 7.08

[[record]]
compound = "O=C1CCC(CC2Cc3c(C(=O)NCc4ccc(Cl)cc4)nn(CCN4CC(F)(F)C4)c3C2)N1 (stereo not drawn) [Compound 131]"
quantitative_readout = 7.77

[[record]]
compound = "Cn1nc(C(=O)NCc2ccc(Cl)cc2)c2c1C1(CCC1)N(C[C@@H]1CCC(=O)N1)C2 [Compound 123]"
quantitative_readout = 5.92


====

As shown below, each of these compounds has a reported EC50 value.
tested on: HSV-1 Strain F; assay: Viral qPCR assay, HSV-1 in Vero cells; format: cell-based, Herpes Simplex Virus type 1; settings: Human alphaherpesvirus 1, Vero, 72 h, read-out: HSV1 VERO Cell (EC50)
Measured Endpoint: EC50 (µM)

[[record]]
compound = "O=C1CC[C@H](CC2Cc3c(C(=O)NCc4ccc(Cl)cc4)nn(C4CN(CC5CC5)C4)c3C2)N1 (single isomer, unassigned)"
units_of_measure = "µM"
quantitative_readout = 3.52

[[record]]
compound = "O=C1CC[C@H](CN2Cc3c(C(=O)NCc4ccc(Cl)cc4)nn(CCC4CCOC4)c3C2)N1 (stereo partly shown)"
units_of_measure = "µM"
quantitative_readout = 2.58

[[record]]
compound = "O=C1CC[C@H](CN2Cc3c(C(=O)NCc4ccc(Cl)cc4)nn(CC4(F)COC4)c3C2)N1"
units_of_measure = "µM"
quantitative_readout = 15.5

[[record]]
compound = "CC1(Cn2nc(C(=O)NCc3ccc(Cl)cc3)c3c2CN(C[C@H]2CCC(=O)N2)C3)COC1"
units_of_measure = "µM"
quantitative_readout = 12

[[record]]
compound = "CC(C)n1nc(C(=O)NCc2ccc(Cl)cc2)c2c1CN(C[C@H]1CCC(=O)N1)C2"
units_of_measure = "µM"
quantitative_readout = 1.85

[[record]]
compound = "CC(C)CN1CC(n2nc(C(=O)NCc3ccc(Cl)cc3)c3c2CC(C[C@H]2CCC(=O)N2)C3)C1 (stereo partly shown)"
units_of_measure = "µM"
quantitative_readout = 1.52

[[record]]
compound = "O=C1CC[C@H](CC2Cc3c(C(=O)NCc4ccc(Cl)cc4)nn(CCN4CCOCC4)c3C2)N1 (stereo partly shown)"
units_of_measure = "µM"
quantitative_readout = 1.62


====

As shown below, each of these compounds has a reported EC50 value.
test system: HSV2; test: Viral qPCR assay, HSV2 in MRC5 cells; type: cell-based, Herpes Simplex Virus type 2; settings: Human alphaherpesvirus 2, MRC5, 72 h, read-out: HSV2 MRC5 Cell (EC50)
Measured Endpoint: EC50

[[record]]
compound = "CC(C1CC(F)C(=O)N1)N1Cc2c(C(=O)NCc3ccc(Cl)cc3)nn(C)c2C1 (single isomer, unassigned)"
result = "0.464 µM"

[[record]]
compound = "CC(C)CN1CC(n2nc(C(=O)NCc3ccc(Cl)cc3)c3c2CC(C[C@H]2CCC(=O)N2)C3)C1 (stereo partly drawn)"
result = "0.589 µM"

[[record]]
compound = "Cn1nc(C(=O)NCc2ccc(Cl)c(F)c2)c2c1CN(C[C@H]1CCC(=O)N1)C2"
result = "5.57 µM"

[[record]]
compound = "Cc1cnc(-n2nc(C(=O)NCc3ccc(Cl)cc3)c3c2CN(C[C@H]2CCC(=O)N2)C3)s1"
result = "0.0507 µM"

[[record]]
compound = "O=C1CC[C@H](CN2Cc3c(C(=O)NCc4ccc(Cl)cc4)nn(-c4nccs4)c3C2)N1"
result = "0.0866 µM"

[[record]]
compound = "O=C1CC[C@@H](CN2Cc3c(C(=O)NCc4ccc(Cl)cc4)nn(-c4ncccn4)c3C2)N1"
result = "1.41 µM"

[[record]]
compound = "Cc1csc(-n2nc(C(=O)NCc3ccc(Cl)cc3)c3c2CN(C[C@H]2CCC(=O)N2)C3)n1"
result = "0.0448 µM"

[[record]]
compound = "Cc1nc(-n2nc(C(=O)NCc3ccc(Cl)cc3)c3c2CN(C[C@H]2CCC(=O)N2)C3)sc1C"
result = "0.124 µM"

[[record]]
compound = "O=C1CC[C@H](CC2Cc3c(C(=O)NCc4ccc(Cl)cc4)nn(CCN4CCOCC4)c3C2)N1 (stereo partly drawn)"
result = "0.557 µM"

[[record]]
compound = "O=C1CC[C@@H](CN2Cc3c(C(=O)NCc4ccc(Cl)cc4)nn(C4CCOC4)c3C2)N1 (single isomer, unassigned)"
result = "3.49 µM"

[[record]]
compound = "O=C1CC[C@@H](CN2Cc3c(C(=O)NCc4ccc(Cl)cc4)nn(C(F)F)c3C2)N1"
result = "1.04 µM"

[[record]]
compound = "Cn1nc(C(=O)NCc2ccc(Cl)cc2)c2c1CN(C[C@H]1CCC(=O)N1)C2"
result = "0.5 µM"

[[record]]
compound = "O=C1CC[C@H](CN2Cc3c(C(=O)NCc4ccc(Cl)cc4)nn(CCn4ccc(Cl)n4)c3C2)N1"
result = "0.96 µM"

[[record]]
compound = "Cn1nc(C(=O)NCc2ccc(Cl)cc2)c2c1CN(CC13CC1CC(=O)N3)C2 (stereo not drawn)"
result = "3.72 µM"

[[record]]
compound = "[2H]C([2H])([2H])n1nc(C(=O)NCc2ccc(Cl)cc2)c2c1CN(C[C@H]1CCC(=O)N1)C2"
result = "3.18 µM"

